As a worked illustration, we turn to Kd data collected for Mitogen-activated protein kinase 1 (Homo sapiens, UniProt P28482).
Activity calls are given as the source filed them.

> print(dat)
                                   compound     endpoint.result
1  CCn1c(C(=O)N(C2CC2)C2CC2)cc2c3c(ncn3C)c(Nc3cc(C)n(C)n3)nc21 [BMS-911543]  > 30 µM (inactive)
2  Cc1cc(C(=O)NOCCO)c(Nc2ccc(I)cc2F)n(C)c1=O [AZD-8330]  > 30 µM (inactive)

Reported Kd, compound C[C@@H](N)c1ccc(C(=O)Nc2ccnc3[nH]ccc23)cc1 [Y-39983] : ____
> 30 µM (inactive)
